# system_tested: T1, APG293 (human CD95L-T4) (human)
# T1 chain: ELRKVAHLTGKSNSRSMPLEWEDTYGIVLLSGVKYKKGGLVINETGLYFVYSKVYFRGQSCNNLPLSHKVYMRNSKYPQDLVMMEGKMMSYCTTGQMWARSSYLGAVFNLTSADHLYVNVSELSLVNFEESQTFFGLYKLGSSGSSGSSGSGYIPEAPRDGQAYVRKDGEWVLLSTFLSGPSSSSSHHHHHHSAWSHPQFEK
# experiment_description: cell-based or functional assay
property_name: EC50, Mean: antagonism of CD95L-T4-induced apoptosis on Jurkat A3 cells (µg/mL)

scFv-minibody SEQ ID 40 (scFv) scFv: EVQLVESGGGLVQPGGSLRLSCAASGFSFSSGYDMSWVRQAPGKGLEWVSAIDTDNDATYYADSVKGRFTISKDSSKNTLYLQMNSLRAEDTAVYYCARTHGDYVAFKLWGQGTLVTVSGGGSGGGSGGGSGGGSDIQMTQSPSSLSASVGDRVTITCQSSQSVYKNNDLSWYQQKPGKAPKLLIYQASKLASGVPSRFSGSGSGTDFTLTISSLQPEDFATYYCAGGYTASIYAFGQGTKVEIKGSGSSGQPREPQVYTLPPSREEMTKNQVSLTCLVKGFYPSDIAVEWESQGSPENNYKTTPPVLDSDGSFFLYSKLTVDKSRWQQGNVFSCSVMHEALHNHYTQKSLSLSPGSSSSSSAWSHPQFEK    0.599
scFv-minibody SEQ ID 39 (scFv) scFv: EVQLVESGGGLVQPGGSLRLSCAASGFSFSSGYDMCWVRQAPGKGLEWVACIDTDNDATYYADSVKGRFTISKDSSKNTLYLQMNSLRAEDTAVYYCARTHGDYVAFKLWGQGTLVTVSGGGSGGGSGGGSGGGSDIQMTQSPSSLSASVGDRVTITCQSSQSVYKNNDLSWYQQKPGKAPKLLIYQASKLASGVPSRFSGSGSGTDFTLTISSLQPEDFATYYCAGGYTASIYAFGQGTKVEIKGSGSSGQPREPQVYTLPPSREEMTKNQVSLTCLVKGFYPSDIAVEWESQGSPENNYKTTPPVLDSDGSFFLYSKLTVDKSRWQQGNVFSCSVMHEALHNHYTQKSLSLSPGSSSSSSAWSHPQFEK    0.093
